Tested on: Plasmodium berghei
Experiment: Luciferase/luciferin-expressing antifolate-resistant parasites were used to infect a culture of HepG2 cells that were pre-incubated with compounds. Infected hepatocytes emit light due to the luciferase reaction. Assay results are presented as the percent inhibition of light emission compared to control. […]
Format: functional
Conditions: sporozoite, PBLUC_HILL_SLOPE 16.8, 2.19, PBLUC_R_SQUARED 0.173, 0.582, read-out: LUCIFERASE INFECTION ASSAY - IC50
measuredParameter: pIC50
Give bare numbers, as −log10 of the molar value.

Lookup: Input `CCOc1ccc(NCC(=O)c2ccc(-c3ccccc3)cc2)cc1` , output reported pIC50.
Found: 5.06

The values you see were collected from ChEMBL document CHEMBL4483862.
